In this section we review reported IC50 values for a set of molecules.
target: UniProt P21146; assay: Radiometric GRK2 inhibition assay; assay type: biochemical
Sequence (P21146 whole entry): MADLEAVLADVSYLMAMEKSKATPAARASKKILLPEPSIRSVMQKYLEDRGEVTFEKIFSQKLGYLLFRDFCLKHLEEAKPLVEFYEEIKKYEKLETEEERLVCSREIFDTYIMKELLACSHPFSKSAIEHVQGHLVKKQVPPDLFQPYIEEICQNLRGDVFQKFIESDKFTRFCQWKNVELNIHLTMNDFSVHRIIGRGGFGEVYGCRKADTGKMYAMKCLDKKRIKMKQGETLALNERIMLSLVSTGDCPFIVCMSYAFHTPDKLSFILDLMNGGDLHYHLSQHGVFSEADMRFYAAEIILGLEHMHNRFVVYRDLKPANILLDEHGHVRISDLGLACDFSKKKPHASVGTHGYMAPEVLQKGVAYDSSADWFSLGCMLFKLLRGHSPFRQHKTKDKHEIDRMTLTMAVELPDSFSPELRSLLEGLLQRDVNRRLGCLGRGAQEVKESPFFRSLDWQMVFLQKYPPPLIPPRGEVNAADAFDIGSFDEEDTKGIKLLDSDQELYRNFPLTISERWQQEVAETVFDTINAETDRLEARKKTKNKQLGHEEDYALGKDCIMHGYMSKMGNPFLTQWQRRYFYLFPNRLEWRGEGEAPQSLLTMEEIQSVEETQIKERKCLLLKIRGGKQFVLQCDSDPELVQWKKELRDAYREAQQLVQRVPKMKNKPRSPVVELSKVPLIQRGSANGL
Number only, in µM; omit the unit.

>>> meas_value("Cc1[nH]c(/C=C2\\C(=O)Nc3ccc(C(=O)NC(C)(C)c4ccccc4)cc32)c(C)c1NC(=O)CCl [Compound 9r]")
190

Next item in the queue.
// IC50 lookup, molecule = Cc1[nH]c(/C=C2\C(=O)Nc3ccc(C(=O)N[C@@H](c4ccccc4)C(C)C)cc32)c(C)c1NC(=O)CCl (stereo in doubt) [Compound 9s] , result: 23

* * *

biological target: PKA (Homo sapiens, UniProt P17612)
ASSAY ENDPOINT: IC50

Observed IC50 on PKA (Homo sapiens, UniProt P17612), entry Cc1[nH]c(/C=C2\C(=O)Nc3ccc(C(=O)N[C@@H](c4ccccc4)C(C)C)cc32)c(C)c1NC(=O)CCl (stereo in doubt) , equals > 250 µM
